The entries below come with measured protein stability index values attached.
B1: PLK2 (parent)
chain: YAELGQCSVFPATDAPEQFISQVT

Variants of: B1
experimental_details: protein stability index of a GFP-peptide fusion (GPS, HEK-293T) (PSI 1-6); higher = more stable;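 also: lentivirally expressed fusions sorted by FACS into six bins by GFP to DsRed ratio, PSI derived from sequencing read proportions per bin multiplied by bin number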
condition_notes: c terminus: a fixed tail appended
Reply with the value as a number alone.

These solved cases illustrate the format of a correct answer.
mutant: S8P
protein stability index: 2.04
--
mutant: V9L
protein stability index: 1.98
--
mutant: T13L
protein stability index: 1.92
--
mutant: A12K
protein stability index: 2.13
--
mutant: T24A
protein stability index: 1.59

Which protein stability index is listed for Q18L ?
2

Also, V9A please.
2.36
